Values compiled from PubChem BioAssay.

# fold change annotations
- procedureText: viability loss with induced miR-34 in A549 – imaging, A549 dox-inducible miR-34, nuclei and caspase counts, primary screen (AID 1347080); further: test concentration not given here
- testSettings: A549 miR-34 inducible, Hoechst nuclei count, 48 h; measured here: relative caspase fold change +Dox/-Dox
readoutName: fold change

• CC(C)ON(CC(=O)NO)S(=O)(=O)c1ccc(-c2ccccc2)cc1 = 1.73
• Cc1nc2c(O)cccc2c(=O)[nH]1 = 0.648
• CN(C)[C@@H]1CCc2[nH]c3ccc(NC(=O)c4ccc(F)cc4)cc3c2C1 = 1.77
• Cc1ccc(CC2(O)CCN(CCOc3ccc(O)cc3)CC2)cc1 = 2.38
• CC(C)C1C2CCC(C2)C1N (stereo not given) = 0.597
• Cc1c(C(=O)c2ccccc2)c(N)c(-c2ccccc2)n1Cc1ccc(Cl)cc1 = 1.39
• c1ccc(C(O[C@@H]2CCCN(CCc3ccc4c(c3)OCO4)C2)c2ccccc2)cc1 = 1.1
• C[C@H]([C@@H](O)c1ccc(O)cc1)N1CCC(Cc2ccccc2)CC1 (racemic) = 0.793
• CCCCC/C=C/C=C1/C=CC(=O)[C@@H]1CCCCCCC(=O)O = 0.938
• N[C@@H](Cn1ccc(=O)n(Cc2ccccc2C(=O)O)c1=O)C(=O)O = 1.26
